# interaction score values compiled below
# TESTED_TARGET: T1, 4H3497-bH
# T1 chain: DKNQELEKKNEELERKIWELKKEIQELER
# ASSAY_COMMENT: two-hybrid library CCNG1;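 further: natural log of median RNA to DNA barcode read ratio; higher means stronger binding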
READOUT_TYPE: interaction score

DKNQELEKENEELKRKIWELEKEIQELKR [4H3298-bH] : -0.424
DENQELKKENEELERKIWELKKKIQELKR [4H1710-bH] : 0.794
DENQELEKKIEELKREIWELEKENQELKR [4H1348-bH] : 0.0523
DKNQELEKEIEELKRKIWELEKKNQELER [4H3175-bH] : 0.402
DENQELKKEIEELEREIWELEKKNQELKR [4H1544-bH] : 0.211
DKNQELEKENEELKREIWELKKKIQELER [4H3277-bH] : -0.711
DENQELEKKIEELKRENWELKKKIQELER [4H1373-bH] : -0.763
DKNQELEKKNEELEREIWELEKKIQELKR [4H3462-bH] : 1.43
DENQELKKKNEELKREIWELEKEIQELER [4H1985-bH] : -0.884
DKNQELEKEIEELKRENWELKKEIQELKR [4H3162-bH] : -0.619
DKNQELEKKNEELERKIWELKKEIQELER [4H3497-bH] : -1.02
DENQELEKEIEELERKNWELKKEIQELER [4H1081-bH] : -1.2
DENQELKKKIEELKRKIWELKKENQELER [4H1899-bH] : 0.766

Recorded values, source paper PMC10397247.
